property-label: AC50

Q. Form: Entry = CCCC(CCC)C(=O)O[C@H]1C[C@H]2CC[C@@H](C1)[N+]2(C)C [ANISOTROPINE] | System = Kappa-type opioid receptor (Homo sapiens) | AC50 = ____; also: assay procedure not described here
A. > 30 µM

Q. Form: Entry = Nc1nc2ccc(OC(F)(F)F)cc2s1 [RILUZOLE] | System = Kappa-type opioid receptor (Homo sapiens) | AC50 = ____; also: assay procedure not described here
A. > 30 µM

Q. Form: Entry = Nc1nc(N)c2nc(-c3ccccc3)c(N)nc2n1 | System = Kappa-type opioid receptor (Homo sapiens) | AC50 = ____; also: assay procedure not described here
A. > 30 µM

Q. Form: Entry = Cc1ccc(C(=O)c2cc(O)c(O)c([N+](=O)[O-])c2)cc1 [TOLCAPONE] | System = Kappa-type opioid receptor (Homo sapiens) | AC50 = ____; also: assay procedure not described here
A. > 10 µM

Q. Form: Entry = CCC1(C2=CCCCCC2)C(=O)NC(=O)NC1=O [HEPTABARBITAL] | System = Kappa-type opioid receptor (Homo sapiens) | AC50 = ____; also: assay procedure not described here
A. > 10 µM

Q. Form: Entry = CN1C(=O)CC(C)(c2ccccc2)C1=O (stereo not drawn) [METHSUXIMIDE] | System = Kappa-type opioid receptor (Homo sapiens) | AC50 = ____; also: assay procedure not described here
A. > 10 µM

Q. Form: Entry = Cc1cc2c(OCC(CNC(C)(C)C)OC(=O)c3ccccc3)cccc2[nH]1 (stereo not drawn) [BOPINDOLOL] | System = Kappa-type opioid receptor (Homo sapiens) | AC50 = ____; also: assay procedure not described here
A. 2.1 µM

Q. Form: Entry = CN(CCCN1c2ccccc2CCc2ccccc21)CC(=O)c1ccc(Cl)cc1 [LOFEPRAMINE] | System = Kappa-type opioid receptor (Homo sapiens) | AC50 = ____; also: assay procedure not described here
A. 4.8 µM

Q. Form: Entry = COC(=O)N[C@H](C(=O)N1CCC[C@H]1c1nc(-c2ccc(-c3ccc(-c4c[nH]c([C@@H]5CCCN5C(=O)[C@@H](NC(=O)OC)C(C)C)n4)cc3)cc2)c[nH]1)C(C)C | System = Kappa-type opioid receptor (Homo sapiens) | AC50 = ____; also: assay procedure not described here
A. 4.1 µM

Q. Form: Entry = CCCCOc1cc(C(=O)NCCN(CC)CC)c2ccccc2n1 [DIBUCAINE] | System = Kappa-type opioid receptor (Homo sapiens) | AC50 = ____; also: assay procedure not described here
A. 7.36 µM

Q. Form: Entry = CC(=O)OCC(=O)[C@@]12OC3(CCCC3)O[C@@H]1C[C@H]1[C@@H]3CCC4=CC(=O)C=C[C@]4(C)[C@@]3(F)[C@@H](O)C[C@@]12C [AMCINONIDE] | System = Kappa-type opioid receptor (Homo sapiens) | AC50 = ____; also: assay procedure not described here
A. > 10 µM

Q. Form: Entry = CN(C)[C@@H]1C(O)=C(C(N)=O)C(=O)[C@@]2(O)C(O)=C3C(=O)c4c(O)ccc(Cl)c4[C@@H](O)[C@H]3C[C@@H]12 [DEMECLOCYCLINE] | System = Kappa-type opioid receptor (Homo sapiens) | AC50 = ____; also: assay procedure not described here
A. > 10 µM

Q. Form: Entry = CN1C(=O)CC(=O)N(c2ccccc2)c2cc(Cl)ccc21 [CLOBAZAM] | System = Kappa-type opioid receptor (Homo sapiens) | AC50 = ____; also: assay procedure not described here
A. 14.1 µM

Q. Form: Entry = CCN(CC)CCNC(=O)c1cc(Cl)c(N)cc1OC [METOCLOPRAMIDE] | System = Kappa-type opioid receptor (Homo sapiens) | AC50 = ____; also: assay procedure not described here
A. > 10 µM

Q. Form: Entry = C#CCN(C)[C@H](C)Cc1ccccc1 [SELEGILINE] | System = Kappa-type opioid receptor (Homo sapiens) | AC50 = ____; also: assay procedure not described here
A. 7.8 µM

Q. Form: Entry = CN1CC(=O)N2[C@H](c3ccc4c(c3)OCO4)c3[nH]c4ccccc4c3C[C@@H]2C1=O | System = Kappa-type opioid receptor (Homo sapiens) | AC50 = ____; also: assay procedure not described here
A. > 10 µM

Q. Form: Entry = CCC[C@@H]1C[C@@H](C(=O)N[C@@H]([C@H]2O[C@H](SC)[C@H](O)[C@@H](O)[C@H]2O)[C@H](C)Cl)N(C)C1 [CLINDAMYCIN] | System = Kappa-type opioid receptor (Homo sapiens) | AC50 = ____; also: assay procedure not described here
A. > 10 µM

Q. Form: Entry = NC1=NC(=O)C(c2ccccc2)O1 (stereo not drawn) [PEMOLINE] | System = Kappa-type opioid receptor (Homo sapiens) | AC50 = ____; also: assay procedure not described here
A. > 10 µM
